# EXPERIMENT DESCRIPTION: binders of probe aFGF10 on microarray, primary screen, stem cell growth factor project, biochemical, small-molecule microarray, fluorescence 635/667 (AID 1071);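 note: score merges 667 nm spot intensity and signal to noise from triplicate slides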
# ASSAY CONDITIONS: higher = more signal
PROPERTY NAME: composite z-score
Quick one: just the number, no unit, thanks!

Fill in the blank: the reported composite z-score of C[C@@H](OCc1ccccc1)C1NC(=O)[C@@]23C(=O)N[C@@H](Cc4ccccc4)C2[C@H](C)[C@@]2(C)O[C@H]2C3/C=C/C/C=C\CNC(=O)CNC1=O (stereo partly specified) is ____. 0.25

Again, but for CCOC(=O)[C@H]1C/C=C/C[C@H](C(=O)OCC)C(=O)O[C@H]2[C@@H](OC)O[C@H](CO)[C@@H](OC(=O)Nc3ccc(OC)cc3)[C@@H]2OC1=O 0.803

Again, but for CC=CC(O)C1C=CC2C(=O)N(c3ccccc3)C(=O)C2N1Nc1ccc([N+](=O)[O-])cc1 (stereo unspecified) 0.407

Again, but for C[N+](C)(C)CCCC[C@@H]1NC(=O)[C@@H]2C[C@H](C(=O)O)[C@H](c3ccc(O)cc3)N2C1=O -0.695

Again, but for CC(C)N1CC=CC23O[C@@H]4C=CCOC(=O)[C@@H]4[C@H]2C(=O)N(C(C)CO)[C@@H]3C1=O (stereo partly specified) -0.536

Again, but for COC(=O)[C@@]1(Cc2ccc(OC)cc2)[C@H]2c3cc(C(=O)N(C)C)n(CCc4c[nH]c5ccc(O)cc45)c3C[C@H]2CN1C(=O)c1ccccc1 1.04

Again, but for C=CC[C@@]1(C(=O)O)N=C(c2ccc(OCCCO)cc2)O[C@@H]1c1ccccc1 0.553

Again, but for NC(N)=NCc1cn(CCc2c[nH]c3ccccc23)nn1 0.536

Again, but for CCCN1C(=O)[C@]2(Cc3ccccc3)N=C(c3ccc(OCCCO)cc3)O[C@@H]2c2ccccc21 0.347

Again, but for CCOC(=O)C[C@H]1[C@H](OC(=O)Cc2ccc3c(c2)OCO3)[C@@H](NC(=O)C2CCCCC2)c2cc(OCCCO)ccc2N1C(=O)c1ccc2ccccc2n1 0.234

Again, but for CCCc1cccc(=O)o1 0.191

Again, but for CN(C)CCCNC(=O)[C@@H]1c2ccccc2C(=O)N(Cc2ccc(OC(F)(F)F)cc2)[C@H]1c1ccc(CO)cc1 -0.133

Again, but for O=C(O)[C@H](Cc1ccccc1)n1cc(-c2ccccn2)nn1 0.306

Again, but for O=C1OCC=C[C@H]2OC34C=CCN(Cn5nnc6ccccc65)C(=O)[C@H]3N(CCCCCCO)C(=O)[C@@H]4[C@@H]12 (stereo partly specified) -0.54

Again, but for NCCCCCNC(=O)[C@@H]1C[C@@H]2C(=O)N[C@@H](CCCCN)C(=O)N2[C@@H]1c1cccc(OCCO)c1 -0.202

Again, but for COC(=O)Cn1c(C(=O)N2CCCC2)cc2c1C[C@H]1CN(C(=O)c3ccccc3)[C@@](Cc3ccc(F)cc3)(C(=O)OC)[C@@H]21 0.0839

###

# System: Sonic hedgehog protein (Shh)
# EXPERIMENT DESCRIPTION: small-molecule binders of Shh protein, primary screen, biochemical, small-molecule microarray, 635/667 nm fluorescence (AID 1151);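 note: Shh protein binding to compounds spotted on small-molecule microarray slides; score combines spot fluorescence intensity with signal-to-noise across triplicate slides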
# ASSAY CONDITIONS: small-molecule microarray binding, 635 nm fluorescence; higher = more signal
For each of the compounds below, state its composite z-score.

Requested read-out composite z-score, target or system Sonic hedgehog protein (Shh), entry CN(C)CCCCNC(=O)[C@H]1C[C@H]2C(=O)N3CCC[C@H]3C(=O)N2[C@H]1c1ccc(O)cc1 -0.229

Again, but for CC(C)(C)N1CC=CC23O[C@@H]4C=CCOC(=O)[C@@H]4[C@H]2C(=O)N(CCCO)[C@@H]3C1=O (stereo partly specified) -0.471

Again, but for Cc1ccc(S[C@]2(C(=O)NCC(C)C)CC(=O)N(Cc3ccccc3Cl)[C@@H]2c2ccc(CO)cc2I)cc1 0.196

Again, but for COc1ccc(CCNC(=O)[C@@]2(Sc3ccc(C)cc3)CC(=O)N(Cc3cc(C(F)(F)F)cc(C(F)(F)F)c3)[C@@H]2c2ccc(CO)cc2I)cc1 0.697

Again, but for O=C1NC(=O)C2C1C=CC(C(O)c1cc(C(F)(F)F)cc(C(F)(F)F)c1)N2Nc1ccc(Cl)cc1Cl (stereo unspecified) -0.384

Again, but for COc1ccc(C(O)C2C=CC3C(=O)N(Cc4ccccc4)C(=O)C3N2n2cnnc2)c2ccccc12 (stereo unspecified) -0.237

Where do the numbers come from? From PubChem BioAssay.
